- Test system: Bacillus subtilis DB104 (SP-AmyQ fusion secretion)
- Method notes: AmyQ secretion efficiency, weighted average sort bin (1 = best secretion, 10 = worst) (bin number (weighted average, 1-10)); higher = lower secretion efficiency
Listing of recorded AmyQ secretion efficiency by entry.

Study these solved cases before continuing.
MRKKRVILAAFILVGSTLGAFSFSSDASAKHV
2.62
MKKWTNMSLLIIAVSLAIAIVLFMYTKGEAKAAGM
2.33
MKKTIMSFVAVAALSTTAFGAHASGKEI
2.91

Record MKKWKYRRRVVLVLSIAGIGGFSVHAASS . Reported AmyQ secretion efficiency: 7.42

---

- Tested on: Bacillus subtilis DB104 (SP-AmyQ fusion secretion)
- Method notes: AmyQ secretion efficiency, weighted average sort bin (1 = best secretion, 10 = worst) (bin number (weighted average, 1-10)); higher = lower secretion efficiency
AmyQ secretion efficiency values for the sequences below.
No unit in the answer, please; the number alone is enough.

Example entries and their recorded answers appear below.
MKWMCSICCAAVLLAGGAAQYEAV
7.08
MKLSVKIAGVLTVAAAAMTAKMYATDKGN
5.75
MRSYIKVLTMCFLGLILFVPTTVVALADNS
2.15
MKKRLIAPMLLSAASLAFFAMSGSAQAAEE
2.23
MNKPTKQRTKLALAAGMTAAAAGGAGTIHAQQP
6.94

The sequence listed as MKWMTNCSICCAAVLLAGGAAQAEAV shows AmyQ secretion efficiency equal to 3.49

Lab book: AmyQ secretion efficiency of MKKRLIAPMLLSAASLAFFAMSGSSGAAGPSPAAQAAAY noted as 4.83
